Data provenance is PubChem BioAssay (NCI).

# Test details: NCI Yeast Anticancer Drug Screen. Data for the cln2 rad14 strain (AID 165)
# Condition description: S. cerevisiae cln2 rad14 strain, at 50.0 µM (retest, dose inferred, filed as 5.0), stronger effect = higher value
Compounds without any hit were thinned out: in the full panel of roughly 79,000, 15% have a hit.
growth inhibition below 90% gives Not satisfied; growth inhibition at or above it gives Satisfied.

Molecule: [C](#Cc1ccccc1)[Hg][C]#Cc1ccccc1
Label class: Satisfied
--
Molecule: COc1cc(O)c2c(O)c3c(c4c2c1[C@]1(C4)C(C)=CCCC1(C)C)[C@H](O)[C@@]1(O)CC(=O)C(C(N)=O)=C(O)[C@@]1(O)C3=O
Label class: Satisfied
--
Molecule: COc1cc(C(c2c(O)c3ccccc3oc2=O)c2c(O)c3ccccc3oc2=O)cc(OC)c1O
Label class: Not satisfied
--
Molecule: CNCC(O)c1cn(C)c2ccccc12 (centres undefined)
Label class: Not satisfied
--
Molecule: CCCCCCC1CC2(Cl)C(Cl)=C(Cl)C1(Cl)C2(Cl)Cl (centres undefined)
Label class: Satisfied
--
Molecule: O=S(=O)([O-])[O-].[OH3+].[OH3+].[OH3+].[Ru+2].c1ccccc1
Label class: Not satisfied
--
Molecule: COC(=O)C(F)C(Br)C(=O)OC (centres undefined)
Label class: Not satisfied
--
Molecule: CC1=CC2OC3CC4OC(=O)/C=C/C=C/C(C(C)O)OCC(O)C(C)CC(=O)OCC2(CC1O)C4(C)C31CO1 (centres undefined)
Label class: Satisfied
